System: HEK293 WT BDD-FVIII-Gluc
assay.notes: secreted FVIII-Gluc luciferase Z-score vs DMSO control; higher = more FVIII-Gluc secretion
condition.parameters: 5 µM
secreted FVIII-Gluc luciferase Z-score: recorded values
Respond using a number only.

// below: answered molecules
1) CCC1CN2CCc3cc(OC)c(OC)cc3[C@@H]2C[C@@H]1C[C@H]1NCCc2cc(OC)c(OC)cc21 (stereo not given in full)    -3.94
2) CCC1CN2CCC1CC2C(O)c1ccnc2ccc(OC)cc12 (stereo not given)    -0.168
3) NCC(O)c1cccc(O)c1 (stereo not given)    0.434
4) CC(=O)c1c(O)c(C)c(O)c(Cc2c(O)c3c(c(C(=O)/C=C/c4ccccc4)c2O)OC(C)(C)C=C3)c1O    -1.16
5) COc1cc2c(cc1O)CC1c3c(cc(O)c(OC)c3-2)CCN1C (stereo not given)    -0.91

What does the record list as secreted FVIII-Gluc luciferase Z-score for C[C@@H]1OC(=O)[C@H]2C[C@H]3CCCC[C@@H]3[C@@H](/C=C/[C@@H]3CCC[C@@H](C)N3C)[C@@H]12 ?
-0.126

What does the data say about its secreted FVIII-Gluc luciferase Z-score? Entry: C/C=C1/C[C@@H](C)[C@](O)(CO)C(=O)OCC2=CCN3CC[C@@H](OC1=O)[C@@H]23
-1.37

Any idea what its secreted FVIII-Gluc luciferase Z-score is? The molecule is c1cc2c(cc1C1OCC3C(c4ccc5c(c4)OCO5)OCC13)OCO2 (stereo not given)
-0.0258

Requested read-out: secreted FVIII-Gluc luciferase Z-score. Entry: COc1cc2c(cc1O)CCNC2C (stereo not given)
0.0191

Given the entry O=C1CCCC2[C@@H]3CCCN4CCC[C@H](CN12)[C@H]34 (stereo not given in full) , report its measured secreted FVIII-Gluc luciferase Z-score.
0.572

* * *

Test system: HEK293 WT BDD-FVIII-Gluc
assay.notes: secreted FVIII-Gluc luciferase Z-score vs DMSO control; higher = more FVIII-Gluc secretion
condition.parameters: 5 µM
assay.metric: secreted FVIII-Gluc luciferase Z-score
Write the value as a bare number.

Completed entries (count: 8):
1) O=CN1C[C@@H]2C[C@H](C1)c1cccc(=O)n1C2    0.583
2) CC1CC[C@@]2(NC1)O[C@H]1C[C@H]3[C@@H]4CC=C5C[C@@H](O)CC[C@]5(C)[C@H]4CC[C@]3(C)[C@H]1[C@@H]2C (some centres undefined)    -1.02
3) COc1ccc2c(c1)[nH]c1c(C)nccc12    -2.87
4) C/C=C/c1ccc2c(c1)OCO2    0.131
5) O=c1cccc2n1C[C@@H]1CNC[C@H]2C1    0.0778
6) C[C@@H]1O[C@@H](O[C@H]2C[C@@H](O)[C@]3(CO)[C@H]4[C@H](O)C[C@]5(C)[C@@H](C6=CC(=O)OC6)CC[C@]5(O)[C@@H]4CC[C@]3(O)C2)[C@H](O)[C@H](O)[C@H]1O    -3.87
7) C[C@]12CC[C@H](O)C[C@@H]1CC[C@@H]1[C@@H]2CC[C@]2(C)C(=O)CC[C@@H]12    0.049
8) CCN1C[C@@]2(COC)C3[C@@H](OC)[C@H]4C1[C@@]3(C1C[C@@]3(O)[C@H](OC(=O)c5ccccc5)C1[C@]4(OC(C)=O)[C@@H](O)[C@@H]3OC)[C@@H](OC)C[C@H]2O (some centres undefined)    -0.523

// below: secreted FVIII-Gluc luciferase Z-score requested for another molecule
# returns recorded secreted FVIII-Gluc luciferase Z-score (system: HEK293 WT BDD-FVIII-Gluc) for CNC1C2CN3CCC(O2)C13 (centres undefined)
-1.02

* * *

Tested on: HEK293 WT BDD-FVIII-Gluc
assay.notes: secreted FVIII-Gluc luciferase Z-score vs DMSO control; higher = more FVIII-Gluc secretion
condition.parameters: 5 µM
assay.metric: secreted FVIII-Gluc luciferase Z-score
Write the number on its own, no unit after it.

Consider the reported secreted FVIII-Gluc luciferase Z-score for these compounds:
1) COc1cc2c(cc1OC)C13CCN4CC5=CCOC6CC(=O)N2C1C6C5CC43 (centres undefined)    0.159
2) CN1CC[C@@]2(C)c3cc(O)ccc3N(C)[C@@H]12    -0.624
3) C[C@]12CC[C@H](O)C[C@H]1CC[C@@H]1[C@@H]2C[C@@H](O)[C@]2(C)[C@@H](C3=CC(=O)OC3)CC[C@]12O    -7.45
4) CC1CC[C@@]2(OC1)O[C@H]1[C@@H](O)[C@H]3[C@@H]4CC[C@H]5C[C@@H](O[C@@H]6O[C@H](CO)[C@H](O[C@@H]7O[C@H](CO)[C@@H](O)[C@H](O[C@@H]8OC[C@@H](O)[C@H](O)[C@H]8O)[C@H]7O[C@@H]7O[C@H](CO)[C@@H](O)[C@H](O[C@@H]8O[C@H](CO)[C@@H](O)[C@H](O)[C@H]8O)[C@H]7O)[C@H](O)[C@H]6O)[C@H](O)C[C@]5(C)[C@H]4CC[C@]3(C)[C@H]1[C@@H]2C (some centres undefined)    0.427
5) COc1ccc(Cc2nccc3cc(OC)c(OC)cc23)cc1OC    -0.721

# get_value(readout='secreted FVIII-Gluc luciferase Z-score', item= C[N+]1=Cc2cc3c(cc2CC1)OCO3 )
0.204

Entry C[C@@H](CO)NC(=O)[C@@H]1C=C2c3cccc4[nH]cc(c34)C[C@H]2N(C)C1 : reported secreted FVIII-Gluc luciferase Z-score = ?
0.475

Recorded secreted FVIII-Gluc luciferase Z-score for C[C@]12CC[C@H](O)CC1=CC[C@@H]1[C@@H]2CC[C@]2(C)C(=O)CC[C@@H]12 , please?
1.29

What measured secreted FVIII-Gluc luciferase Z-score goes with CN[C@H]1CCc2cc(OC)c(OC)c(OC)c2-c2ccc(OC)c(=O)cc21 ?
-3.62

* * *

Test system: HEK293 WT BDD-FVIII-Gluc
assay.notes: secreted FVIII-Gluc luciferase Z-score vs DMSO control; higher = more FVIII-Gluc secretion
condition.parameters: 5 µM
assay.metric: secreted FVIII-Gluc luciferase Z-score

Here is how some compounds turned out for secreted FVIII-Gluc luciferase Z-score.
1) CCCN1C[C@H](CSC)C[C@@H]2c3cccc4[nH]cc(c34)C[C@H]21    0.385
2) C[C@]1(C(=O)O)CCC[C@]2(C)c3cc(O)ccc3CC[C@@H]12    -1.23
3) C[C@H]1C(=O)O[C@H]2CCN3CC=C(COC(=O)[C@](C)(O)[C@@]1(C)O)C23 (stereo not given in full)    0.0827
4) CC(C)(O)[C@@H]1[C@H]2OC(=O)[C@@H]1[C@]1(O)C[C@H]3O[C@]34C(=O)O[C@H]2[C@]14C    -0.634
5) CN(C)[C@@H]1C(=O)C(C(N)=O)=C(O)[C@@]2(O)C(=O)C3=C(O)c4c(O)cccc4[C@@](C)(O)[C@H]3C[C@@H]12    0.496
6) CC[C@H]1C2C[C@H]3[C@@H]4N(C)c5ccccc5[C@]45C[C@@H](C2[C@H]5O)N3[C@@H]1O (stereo not given in full)    0.504
7) c1cncc(C2CCCCN2)c1 (stereo not given)    -0.711
8) CN1Cc2c(ccc3c2OCO3)C2C(O)Cc3cc4c(cc3C21)OCO4 (stereo not given)    -5.22
9) Cc1ccc2[nH]c(CCN)cc2c1    1.37
10) COc1cccc2c1cc([N+](=O)[O-])c1c(C(=O)O)cc3c(c12)OCO3    0.158

I would be grateful if you could share the reported secreted FVIII-Gluc luciferase Z-score for C=C(C)[C@@H]1[C@H]2OC(=O)[C@@H]1[C@]1(O)C[C@H]3O[C@]34C(=O)O[C@H]2[C@]14C .
0.972

GET /values?readout=secreted FVIII-Gluc luciferase Z-score&item= COc1ccc2c3c([nH]c2c1)C(C)=NCC3
-2.05

Which secreted FVIII-Gluc luciferase Z-score reading was recorded for the compound C=CCCN1C[C@@H]2C[C@@H](C1)c1cccc(=O)n1C2 ?
-0.00507

Look at this compound and give its reported secreted FVIII-Gluc luciferase Z-score. COc1ccc2c(c1OC)CN1CCc3cc4c(cc3C1C2)OCO4 (stereo not given)
0.658

For the compound CCCCc1ccc(C(=O)O)nc1 , what secreted FVIII-Gluc luciferase Z-score is on record?
0.032

Name the reported secreted FVIII-Gluc luciferase Z-score value associated with the compound O=c1ccc2cc(OC3OC(CO)C(O)C(O)C3O)c(O)cc2o1 (stereo not given)
0.455

What measured secreted FVIII-Gluc luciferase Z-score goes with COc1cc2c(cc1OC)-c1c(OC)c(OC)c(CO)c3c1C(C2)N(C)CC3 (stereo not given) ?
-0.0378

Give its secreted FVIII-Gluc luciferase Z-score value. Item: COc1cc2c(cc1O)C[C@H]1c3c(cc(OC)c(O)c3-2)CCN1C
0.61

Fill in the blank: the reported secreted FVIII-Gluc luciferase Z-score of CC1=NCCc2c1[nH]c1cc(O)ccc21 is ____.
-0.262

Entry OC[C@@H]1CCCN2CCCC[C@H]12 has what secreted FVIII-Gluc luciferase Z-score?
-0.141

Query (compound): Oc1ccc(CC2NCCc3cc(O)c(O)cc32)cc1O (stereo not given) ; field requested: secreted FVIII-Gluc luciferase Z-score
0.392

# get_value(readout='secreted FVIII-Gluc luciferase Z-score', item= CC(=O)N1C[C@@H]2C[C@H](C1)c1cccc(=O)n1C2 )
-0.118

Recorded secreted FVIII-Gluc luciferase Z-score of CCCCCC[C@H]1C(=O)O[C@H](C)[C@H](NC(=O)c2cccc(NC=O)c2O)C(=O)O[C@@H](C)[C@@H]1OC(=O)CC(C)C , please.
-3.29

Item under review: CC(C)(C)[C@]1(O)C[C@@H]2OC(=O)C[C@@]23C(=O)O[C@@H]2OC(=O)[C@H](O)[C@]213 . Reported secreted FVIII-Gluc luciferase Z-score?
-0.32

I would be grateful if you could share the reported secreted FVIII-Gluc luciferase Z-score for COc1cc2c(cc1OC)C(C)NCC2 (stereo not given) .
0.0745

GET /values?readout=secreted FVIII-Gluc luciferase Z-score&item= COc1ccc2c(c1OC)C(=O)O[C@H]2[C@@H]1c2cc3c(cc2CCN1C)OCO3
0.0229

Consider the compound CN1C[C@H](CNC(=O)OCc2ccccc2)C[C@@H]2c3cccc4c3c(cn4C)C[C@H]21 and give its measured secreted FVIII-Gluc luciferase Z-score.
-0.629

Report secreted FVIII-Gluc luciferase Z-score for C[C@@H]1C[C@@H]([C@H](O)CC2CC(=O)NC(=O)C2)C(=O)[C@@H](C)C1 please.
-7.2

What secreted FVIII-Gluc luciferase Z-score value was documented for this compound, CNC(=O)Oc1ccc2c(c1)C1(C)CCN(C)C1N2C (stereo not given) ?
0.602
